SYSTEM_TESTED: human FLT3 protein (FLT3 (WT)) (Homo sapiens, UniProt P36888)
Construct: human FLT3 protein (intracellular region, 564 to 993 aa); GST; purchased Carna Biosciences; host or cells: baculovirus expression system
Sequence (P36888 564-993): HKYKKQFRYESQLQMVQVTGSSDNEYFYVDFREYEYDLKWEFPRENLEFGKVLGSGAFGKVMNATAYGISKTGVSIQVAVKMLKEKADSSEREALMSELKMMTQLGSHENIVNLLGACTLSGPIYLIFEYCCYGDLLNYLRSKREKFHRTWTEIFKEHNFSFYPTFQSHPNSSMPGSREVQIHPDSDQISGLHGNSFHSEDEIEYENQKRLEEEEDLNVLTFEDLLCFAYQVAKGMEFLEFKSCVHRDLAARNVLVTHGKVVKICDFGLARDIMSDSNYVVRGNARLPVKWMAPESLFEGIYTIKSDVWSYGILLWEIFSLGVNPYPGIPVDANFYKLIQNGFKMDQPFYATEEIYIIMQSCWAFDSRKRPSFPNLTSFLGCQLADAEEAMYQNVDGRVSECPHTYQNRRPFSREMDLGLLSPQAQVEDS
PROTOCOL_DETAILS: FLT3 inhibition test (FLT3 enzyme inhibition, time-resolved fluorescence of substrate peptide phosphorylation)
Assay type: biochemical
STATED_CONDITIONS: GST-fused human FLT3 (564 to 993 aa), ATP 50 μM; read-out: FLT3 (WT) enzyme inhibition activity
pIC50: −log10 of the molar value.
MEASURED_METRIC: pIC50

Worked examples, 5 compounds total:
# COMPOUND, pIC50
measured = [
    ("CCCNc1nc(Nc2ccc(F)cc2)ncc1C#CCCCNC(=O)CN(C)C(=O)/C=C/CN(C)C", "> 8.00"),
    ("CCCNc1nc(Nc2ccc(C#N)cc2)ncc1C#C[C@H]1CCC[C@@H](NC(=O)[C@H](C)N(C)C(=O)/C=C/CN(C)C)C1", "> 8.00"),
    ("CCCNc1nc(NCCc2ccncc2)ncc1C(=O)NCCC(CC)NC(=O)CNC(=O)/C=C/CN(C)C (stereo not drawn)", "> 8.00"),
    ("CCCNc1nc(Nc2ccc3cnccc3c2)ncc1C(=O)Nc1cccc(NC(=O)[C@H](C)N(C)C(=O)/C=C/CN(C)C)c1", "> 8.00"),
    ("CCCNc1nc(Nc2cccc(F)c2)ncc1CNc1cccc(NC(=O)[C@H](C)N(C)C(=O)/C=C/CN(C)C)c1", "7.00 to 8.00"),
]

Ask: Find the measured pIC50 of CCCNc1nc(Nc2ccc(C#N)cc2)ncc1C#CCCCNC(=O)[C@H](COC)NC(=O)/C=C/CN(C)C with human FLT3 protein (FLT3 (WT)) (Homo sapiens, UniProt P36888) as test system.
Result: > 8.00

Ask: Given CCCNc1nc(Nc2cccc(F)c2)ncc1C#CCCCNC(=O)[C@H](CCC)N(C)C(=O)/C=C/CN(C)C , report its pIC50 on human FLT3 protein (FLT3 (WT)) (Homo sapiens, UniProt P36888).
Result: > 8.00

Ask: Report the value of pIC50 obtained on human FLT3 protein (FLT3 (WT)) (Homo sapiens, UniProt P36888) for CCNc1nc(Nc2cccc(F)c2)ncc1C#C[C@@H]1CCC[C@H](NC(=O)[C@H](C)N(C)C(=O)/C=C/CN(C)C)C1 .
Result: > 8.00

Ask: Enter pIC50 (test system human FLT3 protein (FLT3 (WT)) (Homo sapiens, UniProt P36888)) for CCCN(C)c1nc(NCCc2ccncc2)ncc1C#Cc1cccc(NC(=O)[C@H](C)N(C)C(=O)/C=C/CN(C)C)c1
Result: > 8.00

Ask: // output pIC50; input CCCNc1nc(Nc2ccc(C#N)cc2)ncc1C#CCCCNC(=O)[C@@H]1C[C@H](OC)CN1C(=O)/C=C/CN(C)C ; system human FLT3 protein (FLT3 (WT)) (Homo sapiens, UniProt P36888)
Result: > 8.00

Ask: Name the recorded pIC50 of CCCNc1nc(Nc2cccc(F)c2)ncc1-c1nc2ccc(NC(=O)[C@H](C)N(C)C(=O)/C=C/CN(C)C)cc2o1 , assay system human FLT3 protein (FLT3 (WT)) (Homo sapiens, UniProt P36888).
Result: 7.00 to 8.00

Ask: Jot down pIC50 (human FLT3 protein (FLT3 (WT)) (Homo sapiens, UniProt P36888)) of COCCCNc1nc(Nc2ccc3cnn(C)c3c2)ncc1C#CCCCNC(=O)[C@H](C)N(C)C(=O)/C=C/CN(C)C .
Result: > 8.00

Ask: Send back human FLT3 protein (FLT3 (WT)) (Homo sapiens, UniProt P36888) pIC50 of C=CC(=O)NCC(=O)Nc1cccc(CNC(=O)c2cnc(NCCc3ccncc3)nc2NCCC)c1 only.
Result: 7.00 to 8.00

Ask: Please indicate recorded pIC50 of CCCNc1nc(Nc2ccc(C(N)=O)cc2)ncc1C(=O)Nc1ccc2nc(CNC(=O)/C=C/CN(C)C)[nH]c2c1 measured with human FLT3 protein (FLT3 (WT)) (Homo sapiens, UniProt P36888).
Result: > 8.00
